# ASSAYED TARGET: Rho-associated protein kinase 1 (Homo sapiens) (UniProt Q13464);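 further: values are mean percent inhibition of ROCK1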
# Sequence (Q13464 2-1354 limits assumed): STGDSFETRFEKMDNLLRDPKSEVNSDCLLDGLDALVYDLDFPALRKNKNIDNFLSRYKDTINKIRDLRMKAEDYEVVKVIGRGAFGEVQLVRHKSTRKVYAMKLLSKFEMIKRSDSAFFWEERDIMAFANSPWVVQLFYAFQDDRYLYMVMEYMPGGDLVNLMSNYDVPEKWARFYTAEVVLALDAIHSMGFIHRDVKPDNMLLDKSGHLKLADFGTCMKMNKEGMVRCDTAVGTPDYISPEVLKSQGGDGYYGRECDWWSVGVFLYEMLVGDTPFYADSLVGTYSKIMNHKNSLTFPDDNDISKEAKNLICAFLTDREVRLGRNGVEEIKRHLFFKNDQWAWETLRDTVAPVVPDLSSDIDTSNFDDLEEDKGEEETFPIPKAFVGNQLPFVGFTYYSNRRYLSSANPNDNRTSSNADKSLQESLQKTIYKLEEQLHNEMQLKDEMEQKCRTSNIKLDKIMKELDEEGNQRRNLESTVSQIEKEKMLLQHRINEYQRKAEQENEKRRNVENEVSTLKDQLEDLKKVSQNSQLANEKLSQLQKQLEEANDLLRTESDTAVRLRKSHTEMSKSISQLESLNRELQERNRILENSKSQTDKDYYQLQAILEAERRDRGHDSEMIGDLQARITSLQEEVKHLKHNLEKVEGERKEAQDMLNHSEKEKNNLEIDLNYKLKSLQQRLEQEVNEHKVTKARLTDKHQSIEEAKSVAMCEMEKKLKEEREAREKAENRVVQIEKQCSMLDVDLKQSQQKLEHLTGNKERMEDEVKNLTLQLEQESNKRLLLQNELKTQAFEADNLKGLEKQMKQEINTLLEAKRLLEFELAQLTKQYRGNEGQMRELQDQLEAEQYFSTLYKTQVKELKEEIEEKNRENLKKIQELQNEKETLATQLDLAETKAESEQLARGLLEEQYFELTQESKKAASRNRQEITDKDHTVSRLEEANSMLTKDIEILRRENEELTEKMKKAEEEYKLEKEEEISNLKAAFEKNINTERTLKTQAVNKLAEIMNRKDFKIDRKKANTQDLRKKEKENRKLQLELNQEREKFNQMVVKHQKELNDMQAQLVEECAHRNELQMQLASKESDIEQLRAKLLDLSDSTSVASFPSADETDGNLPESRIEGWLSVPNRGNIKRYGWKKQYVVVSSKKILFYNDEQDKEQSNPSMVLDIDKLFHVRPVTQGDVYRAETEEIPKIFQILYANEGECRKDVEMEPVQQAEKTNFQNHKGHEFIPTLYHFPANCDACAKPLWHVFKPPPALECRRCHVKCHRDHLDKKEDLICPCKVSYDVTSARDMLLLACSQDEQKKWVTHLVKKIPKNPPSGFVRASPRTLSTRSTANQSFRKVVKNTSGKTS
# CONDITIONS: at 0.1 µM
So I've got a bunch of compounds here, and I need their inhibition values.
Give bare numbers, in %.

CN(c1ccc(NC(=O)Nc2ccc(OC(F)(F)F)cc2)cc1)c1ccnc(Nc2cccc(S(N)(=O)=O)c2)n1 : -0.35
Cc1ccc(O)cc1Nc1ccnc2ccc(S(C)(=O)=O)cc12 : 1.34
Cc1nc(-c2ccccc2)n2nc(NCCCN3CCOCC3)ncc12 : 0.46
N#Cc1cccc(Nc2nccc(-c3cnn4ncccc34)n2)c1 : 1.39
Cc1ccc(NC(=O)CC2CC2)cc1-c1ccc(C(=O)NCC2CC2)cc1 : 1
OCc1ccc(-c2nc(-c3ccccn3)c(-c3ccc4c(c3)OCO4)[nH]2)cc1 : 1.43
Nc1nccc(C#Cc2cncnc2Nc2ccc(OCc3cccc(F)c3)c(Cl)c2)n1 : 0.91
Nc1nccc(-c2c(-c3ccc(F)cc3)nn3cc(C(F)(F)F)ccc23)n1 : -0.4
CCn1c(-c2nonc2N)nc2c(C#CC(C)(C)O)nc(OCCNC)cc21 : 3.08
N#Cc1c(NC(=O)c2ccccc2F)sc2c1CCCC2 : -0.67

I would be grateful if you could provide inhibition for each of the following entries.
1. CN(C)CCCn1c(-c2nonc2N)nc2cnccc21
2. [O-][S+]1CCN(Cc2ccc(-c3ccc4ncnc(Nc5ccc(OCc6ccccc6)c(Cl)c5)c4c3)o2)CC1
3. C[C@@H](Oc1cc(-n2cnc3ccc(OCC4CCN(C)CC4)cc32)sc1C(N)=O)c1ccccc1C(F)(F)F
4. CN1CCN(C(=O)c2ccc(NC(=O)Nc3ccc(N(C)c4ccnc(Nc5ccc(CS(C)(=O)=O)cc5)n4)cc3)cc2)CC1

1: 5.96; 2: 0.9; 3: 0.29; 4: 2.82
